Entry source: paper PMC2234460

Target: Shaker K+ channel (Shaker B) (Drosophila melanogaster, UniProt P08510, DEL6-46/F425G/K253C/T449F)
Assay: two-electrode voltage clamp in Xenopus oocytes
pKd: −log10 of the molar value.

# MOLECULE, pKd
data = [
    ("CC[N+](CC)(CC)CC [TEA]", 3.70),
]
